Source listed as patent US20150218172A1.

Target: TrkA (Homo sapiens)
Construct: aa 441-796; His; purchased Invitrogen PV3144
Sequence (P04629 441-796): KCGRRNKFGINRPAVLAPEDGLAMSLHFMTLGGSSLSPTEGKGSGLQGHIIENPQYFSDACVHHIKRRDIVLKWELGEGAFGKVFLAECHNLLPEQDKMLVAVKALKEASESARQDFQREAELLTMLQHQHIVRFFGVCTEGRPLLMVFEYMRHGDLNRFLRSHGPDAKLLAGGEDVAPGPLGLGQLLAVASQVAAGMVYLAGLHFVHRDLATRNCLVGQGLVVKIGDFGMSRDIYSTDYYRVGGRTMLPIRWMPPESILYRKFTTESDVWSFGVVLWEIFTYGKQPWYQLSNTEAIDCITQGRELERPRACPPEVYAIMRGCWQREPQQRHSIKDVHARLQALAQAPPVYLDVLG
Experiment: Isolated TRK enzyme assay (HTRF KinEASE-TK kit), PV3144 TrkA enzyme assay
Assay type: biochemical
Conditions: PV3144 TrkA enzyme assay, recombinant His-tagged cytoplasmic domain aa 441-796, 4 nM enzyme, 40 uM ATP; arithmetic mean where more than one reading; read-out: Trka enzyme (IC50)
Rule: IC50 below 200 nM gives satisfied. Equal to or above 200 nM gives not satisfied.

As a guide, the following entries are already answered.
Cc1cc(C)n(CC(=O)Nc2cc(C(=O)c3cn(C(C)(C)C)c4ncncc34)ccn2)n1
satisfied
CC(C)n1cc(C(=O)c2ccnc(NC(=O)Cn3ccnc3)c2)c2cncnc21
not satisfied
CC(CO)(CO)n1cc(C(=O)c2cc(NC(=O)Cc3cccc(C(F)(F)F)c3)ccn2)c2cncnc21
satisfied
C[C@H](CO)n1cc(C(=O)c2cc(NC(=O)Cn3ccc(C(F)(F)F)n3)ccn2)c2cncnc21
satisfied
CC(C)c1cn(CC(=O)Nc2cc(C(=O)c3cn(C(C)C)c4ncncc34)ccn2)nn1
satisfied

Please state whether IC50 is below 200 nM for "CC(C)n1cc(C(=O)c2cc(NC(=O)Cn3ccc(C(F)(F)F)n3)ccn2)c2cnc(N)nc21"
satisfied

Determine whether this compound shows IC50 lower than 200 nM (ties excluded): "O=C(Cn1ccc(C(F)(F)F)n1)Nc1ccnc(C(=O)c2cn(C(CO)CO)c3ncncc23)c1"
not satisfied

Would you kindly verify if IC50 of "C[C@H](CO)n1cc(C(=O)c2cc(NC(=O)Cc3ccc(C#N)cc3)ccn2)c2cncnc21" is strictly less than 200 nM?
satisfied

Quick check: does "Cc1cc(C(=O)c2cn(C(C)C)c3ncncc23)cc(NC(=O)Cc2ccccc2)n1" have IC50 under 200 nM?
not satisfied
